The reported numbers originate from patent EP4671246A1.

Reported values of log10 of IC50 for individual entries
target: NLRP3 inflammasome (Homo sapiens); experiment: Evaluation of NLRP3 inflammasome inhibitory activity (inhibition of IL-1β production in THP1-Null cells); details: 0.5 µmol/L PMA overnight, 1 µg/mL Lipopolysaccharides 3 hours, Nigericin 7.5 µmol/L 1.5 hours, AlphaLISA Human IL-1β
Sequence (Q96P20 whole entry): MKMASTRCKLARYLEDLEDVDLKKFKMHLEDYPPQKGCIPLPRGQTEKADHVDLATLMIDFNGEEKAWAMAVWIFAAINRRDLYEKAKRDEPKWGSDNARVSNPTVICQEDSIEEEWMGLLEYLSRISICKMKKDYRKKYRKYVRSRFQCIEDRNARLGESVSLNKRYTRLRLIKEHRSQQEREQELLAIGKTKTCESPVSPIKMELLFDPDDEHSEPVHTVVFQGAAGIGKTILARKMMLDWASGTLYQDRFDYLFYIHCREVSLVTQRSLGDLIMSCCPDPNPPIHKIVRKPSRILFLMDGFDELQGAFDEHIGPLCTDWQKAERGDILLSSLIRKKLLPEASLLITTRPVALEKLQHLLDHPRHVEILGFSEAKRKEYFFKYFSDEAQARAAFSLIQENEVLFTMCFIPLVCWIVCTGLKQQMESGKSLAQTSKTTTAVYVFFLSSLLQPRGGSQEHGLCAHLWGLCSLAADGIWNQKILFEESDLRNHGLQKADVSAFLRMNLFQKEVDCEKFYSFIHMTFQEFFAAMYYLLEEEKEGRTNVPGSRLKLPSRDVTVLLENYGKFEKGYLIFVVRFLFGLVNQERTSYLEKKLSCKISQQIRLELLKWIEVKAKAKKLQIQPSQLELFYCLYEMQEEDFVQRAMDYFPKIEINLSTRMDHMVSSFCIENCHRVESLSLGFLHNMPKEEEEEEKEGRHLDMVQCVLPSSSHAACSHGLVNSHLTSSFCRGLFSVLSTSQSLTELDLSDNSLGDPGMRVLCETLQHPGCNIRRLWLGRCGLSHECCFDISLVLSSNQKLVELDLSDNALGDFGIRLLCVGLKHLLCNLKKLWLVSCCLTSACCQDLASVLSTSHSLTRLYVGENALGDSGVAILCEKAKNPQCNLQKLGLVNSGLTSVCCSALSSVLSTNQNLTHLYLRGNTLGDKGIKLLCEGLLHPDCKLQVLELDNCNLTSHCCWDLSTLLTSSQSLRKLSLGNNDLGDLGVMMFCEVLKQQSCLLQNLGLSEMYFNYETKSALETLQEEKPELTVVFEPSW
Result Type: log10 of IC50 (log10 of the value in nM)

compound="COc1nc2nn(-c3ccc(C4CC4)cc3OC)cc2c(=O)[nH]1 [Example 40]" measured_value=1.69
compound="COc1nc2nn(-c3c(C)cc(C4CC4)cc3C)c(C#N)c2c(=O)[nH]1 [Example 119]" measured_value=1.36
compound="Cc1cc(Br)cc(C)c1-n1cc2c(=O)[nH]c(OC3COC3)nc2n1 [Example 121]" measured_value=3.38
compound="Cc1cc(C2CC2)cc(C)c1-n1cc2c(=O)[nH]c(OCC(F)(F)CO)nc2n1 [Example 106]" measured_value=1.46
compound="COCCOc1nc2nn(-c3c(C)cc(C)cc3C)cc2c(=O)[nH]1 [Example 4]" measured_value=1.87
compound="Cc1cc(C2CC2)cc(C)c1-n1cc2c(=O)[nH]c(OCCCS(=O)(=O)C(C)C)nc2n1 [Example 62]" measured_value=0.60
compound="COc1nc2nn(-c3c(C)cc(Br)cc3C)cc2c(=O)[nH]1 [Example 12]" measured_value=0.95
compound="COc1nc2nn(-c3ccc(C4CC4)cc3C3CC3)cc2c(=O)[nH]1 [Example 56]" measured_value=1.26
compound="Cc1cc(Br)cc(C)c1-n1cc2c(=O)[nH]c(OCCCO)nc2n1 [Example 99]" measured_value=1.08
compound="COc1nc2nn(-c3c(C)cc(C4(O)CCC4)cc3C)cc2c(=O)[nH]1 [Example 27]" measured_value=3.00
compound="CCOc1nc2nn(-c3c(C)cc(C)cc3C)cc2c(=O)[nH]1 [Example 9]" measured_value=1.36
compound="Cc1cc(C2CC2)cc(C)c1-n1cc2c(=O)[nH]c(OCCC(C)(C)C#N)nc2n1 [Example 117]" measured_value=1.49
compound="Cc1cc(C)c(-n2cc3c(=O)[nH]c(OCC4CC4)nc3n2)c(C)c1 [Example 3]" measured_value=0.95
compound="Cc1cc(Br)cc(C)c1-n1cc2c(=O)[nH]c(OCCN(C)C)nc2n1 [Example 25]" measured_value=1.72
compound="COc1nc2nn(-c3cc4c(cc3Cl)OCC4)cc2c(=O)[nH]1 [Example 82]" measured_value=1.88
compound="Cc1cc(Br)cc(C)c1-n1cc2c(=O)[nH]c(OC(C)C)nc2n1 [Example 33]" measured_value=1.38
compound="COc1nc2nn(-c3c(C)cc(OC(F)F)cc3Cl)cc2c(=O)[nH]1 [Example 78]" measured_value=1.60
compound="COc1nc2nn(-c3c(C)cc(C(C)(F)F)cc3Cl)cc2c(=O)[nH]1 [Example 84]" measured_value=1.65
